Measured half-life at 1 μM accompanies every entry in the list below.
PROCEDURE_DETAILS: Assay C: Metabolic stability in human liver microsomes (Human MST)
Assay type: in vitro ADME
TEST_CONTEXT: pooled human liver microsomes, pH 7.6; human liver microsomes 1 mg/mL, compound 1 μM, 37° C., NADPH; read-out: Human MST t1/2
PROPERTY_NAME: half-life at 1 μM

>>> result("CCN(C(=O)c1c(-n2nccn2)ccc(C)c1F)[C@@H](C)COc1ccc(C(F)(F)F)cn1")
"18 min"
>>> result("CCN(C(=O)c1cc(C)ccc1-c1ncccn1)[C@@H](C)COc1ccc(C(F)(F)F)cn1")
"10 min"
>>> result("CCN(C(=O)c1ccccc1-n1nccn1)[C@@H](C)COc1ccc(C(F)(F)F)cn1")
"24 min"
>>> result("CCN(C(=O)c1ccccc1-c1ncccn1)[C@@H](C)COc1ccc(Br)cn1")
"32 min"
>>> result("CCN(C(=O)c1cc(F)ccc1-c1ncccn1)[C@@H](C)COc1ccc(C(F)(F)F)cn1")
"65 min"
>>> result("CCN(C(=O)c1cccc(F)c1-n1nccn1)[C@@H](C)COc1ncc(C(F)(F)F)cc1F")
"95 min"
>>> result("CCN(C(=O)c1ccccc1-c1ccn(C)n1)[C@@H](C)COc1ccc(C(F)(F)F)cn1")
"14 min"
>>> result("CCN(C(=O)c1ccc(F)c(F)c1-n1nccn1)[C@@H](C)COc1ccc(C(F)(F)F)cn1")
"18 min"

---

TARGET_OR_SYSTEM: human Orexin 1 receptor (Homo sapiens, UniProt O43613)
Construct: stably expressing the full-length human Orexin 1 receptor; expressed in transfected cells; host or cells: CHO-K1 (CHO-K1/hOX1), co-expressing aequorin
Sequence (O43613 1-425): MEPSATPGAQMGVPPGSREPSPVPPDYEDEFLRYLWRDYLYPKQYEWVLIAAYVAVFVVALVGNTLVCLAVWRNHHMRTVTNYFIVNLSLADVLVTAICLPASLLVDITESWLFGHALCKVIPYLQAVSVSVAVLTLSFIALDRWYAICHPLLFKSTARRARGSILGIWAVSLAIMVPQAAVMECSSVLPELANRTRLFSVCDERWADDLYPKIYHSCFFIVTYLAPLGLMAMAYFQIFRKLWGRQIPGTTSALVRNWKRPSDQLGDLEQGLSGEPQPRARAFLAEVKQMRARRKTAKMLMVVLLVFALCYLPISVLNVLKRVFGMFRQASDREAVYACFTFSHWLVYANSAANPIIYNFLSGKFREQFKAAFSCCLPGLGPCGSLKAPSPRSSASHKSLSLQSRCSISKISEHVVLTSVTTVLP
PROCEDURE_DETAILS: Assay A: In vitro testing of OX1R potency: OX1R IP1 (HTRF, CHO-K1/hOX1 cells, Orexin A as agonist)
Format: cell-based
TEST_CONTEXT: Orexin A 50 nM; read-out: OX1R Kb (Orexin A concentration used)
Measured Kb accompanies every entry in the list below.
PROPERTY_NAME: Kb (nM)

>>> recorded_number("CCN(C(=O)c1cccc(F)c1-n1nccn1)[C@@H](C)COc1ncc(C(F)(F)F)cc1Cl")
0.17
>>> recorded_number("CCN(C(=O)c1ccc(F)cc1-c1ncccn1)[C@@H](C)COc1ccc(Br)cn1")
0.17
>>> recorded_number("CCN(C(=O)c1ccc(Cl)cc1-n1nccn1)[C@@H](C)COc1ncc(C(F)(F)F)cc1F")
0.32
>>> recorded_number("CCN(C(=O)c1ccc(Cl)cc1-n1nccn1)[C@@H](C)COc1ccc(Cl)cn1")
0.354

---

TARGET_OR_SYSTEM: human Orexin 1 receptor (Homo sapiens, UniProt O43613)
Construct: stably expressing the full-length human Orexin 1 receptor; expressed in transfected cells; host or cells: CHO-K1 (CHO-K1/hOX1), co-expressing aequorin
PROCEDURE_DETAILS: Assay A: In vitro testing of OX1R potency: OX1R IP1 (HTRF, CHO-K1/hOX1 cells, Orexin A as agonist)
Type: cell-based
TEST_CONTEXT: OX1R Kb at 50 nM Orexin A
Quick rule for you: OX2R Kb/OX1R Kb at 200 or higher means rule met, lower means rule not met.

>>> class_label("CCN(C(=O)c1ccc(F)cc1-n1nccn1)[C@@H](C)COc1ncc(C(F)(F)F)cc1F [Example 48]")
"rule met"
>>> class_label("CCN(C(=O)c1ccccc1-c1nnc(C)o1)[C@@H](C)COc1ccc(C(F)(F)F)cn1 [Example 22]")
"rule not met"
>>> class_label("CCN(C(=O)c1ccccc1-c1cnc(OC)nc1)[C@@H](C)COc1ccc(C(F)(F)F)cn1 [Example 79]")
"rule not met"
>>> class_label("CCN(C(=O)c1cc(F)ccc1-n1nccn1)[C@@H](C)COc1ccc(C(F)(F)F)cn1 [Example 3]")
"rule not met"
>>> class_label("CCN(C(=O)c1cc(F)ccc1-n1nccn1)[C@@H](C)COc1ncc(C(F)(F)F)cc1F [Example 51]")
"rule met"
>>> class_label("CCN(C(=O)c1cc(OC)ccc1-n1nccn1)[C@@H](C)COc1ccc(C(F)(F)F)cn1 [Example 15]")
"rule met"
>>> class_label("CCN(C(=O)c1ccc(F)cc1-c1ncccn1)[C@@H](C)COc1ccc(Br)cn1 [Example 129]")
"rule met"
>>> class_label("CCN(C(=O)c1ccccc1-n1nccn1)[C@@H](C)COc1ccc(Cl)cn1 [Example 46]")
"rule not met"
>>> class_label("CCN(C(=O)c1cc(C#N)ccc1-n1nccn1)[C@@H](C)COc1ncc(C(F)(F)F)cc1F [Example 57]")
"rule met"
>>> class_label("CCN(C(=O)c1cccc(F)c1-c1ncccn1)[C@@H](C)COc1ccc(Br)cn1 [Example 125]")
"rule met"
>>> class_label("CCN(C(=O)c1cccc(F)c1-n1nccn1)[C@@H](C)COc1ccc(C(F)(F)F)cn1 [Example 109]")
"rule met"
>>> class_label("CCN(C(=O)c1cccc(C)c1-c1nnc(C)o1)[C@@H](C)COc1ccc(Cl)cn1 [Example 39]")
"rule not met"
>>> class_label("CCN(C(=O)c1cc(F)cc(F)c1-n1nccn1)[C@@H](C)COc1ncc(C(F)(F)F)cc1F [Example 54]")
"rule met"
>>> class_label("CCN(C(=O)c1cccc(Cl)c1-n1nccn1)[C@@H](C)COc1ccc(OC(F)(F)F)cn1 [Example 134]")
"rule not met"
>>> class_label("CCN(C(=O)c1ccccc1-c1cnn(C)c1)[C@@H](C)COc1ccc(C(F)(F)F)cn1 [Example 93]")
"rule not met"
>>> class_label("CCN(C(=O)c1ccc(F)c(F)c1-n1nccn1)[C@@H](C)COc1ncc(C(F)(F)F)cc1F [Example 50]")
"rule met"

---

TARGET_OR_SYSTEM: human Orexin 1 receptor (Homo sapiens)
Construct: stably expressing the full-length human Orexin 1 receptor; expressed in transfected cells; host or cells: CHO-K1 (CHO-K1/hOX1), co-expressing aequorin
PROCEDURE_DETAILS: Assay A: In vitro testing of OX1R potency: OX1R IP1 (HTRF, CHO-K1/hOX1 cells, Orexin A as agonist)
Type: cell-based
TEST_CONTEXT: OX1R Kb at 0.5 nM Orexin A
PROPERTY_NAME: OX2R Kb/OX1R Kb

>>> result("CCN(C(=O)c1cc(F)ccc1-n1cccn1)[C@@H](C)COc1ncc(C(F)(F)F)cc1F [Example 124]")
278
>>> result("CCN(C(=O)c1cccc(F)c1-c1nnc(C)o1)[C@@H](C)COc1ccc(C(F)(F)F)cn1 [Example 18]")
273
>>> result("CCN(C(=O)c1cccc(F)c1-n1nccn1)[C@@H](C)COc1ccc(Cl)cn1 [Example 114]")
92
>>> result("CCN(C(=O)c1ccccc1-c1ccc(=O)n(C)c1)[C@@H](C)COc1ccc(C(F)(F)F)cn1 [Example 96]")
217
>>> result("CCN(C(=O)c1c(F)cccc1-c1ncccn1)[C@@H](C)COc1ccc(C(F)(F)F)cn1 [Example 116]")
132
>>> result("CCN(C(=O)c1ccccc1-n1nccn1)[C@@H](C)COc1ncc(C(F)(F)F)cc1F [Example 47]")
130
>>> result("CCN(C(=O)c1ccc(C)cc1-c1ncccn1)[C@@H](C)COc1ccc(C(F)(F)F)cn1 [Example 101]")
79
>>> result("CCN(C(=O)c1ccccc1-c1ccn(C)n1)[C@@H](C)COc1ccc(C(F)(F)F)cn1 [Example 74]")
123
>>> result("CCN(C(=O)c1ccccc1-c1ncccn1)[C@@H](C)COc1ccc(Br)cn1 [Example 117]")
194
>>> result("CCN(C(=O)c1ccc(F)cc1-c1nnc(C)o1)[C@@H](C)COc1ncc(C(F)(F)F)cc1F [Example 55]")
430
>>> result("CCN(C(=O)c1ccc(F)cc1-n1nccn1)[C@@H](C)COc1ccc(C(F)(F)F)cn1 [Example 1]")
171
>>> result("CCN(C(=O)c1cccc(F)c1-n1nccn1)[C@@H](C)COc1ccc(Br)cn1 [Example 111]")
123
>>> result("CCN(C(=O)c1ccc(F)cc1-c1nnc(C)o1)[C@@H](C)COc1ccc(C(F)(F)F)cn1 [Example 14]")
461
>>> result("CCN(C(=O)c1ccccc1-c1cnc(OC)nc1)[C@@H](C)COc1ccc(C(F)(F)F)cn1 [Example 79]")
66
>>> result("CCN(C(=O)c1cc(F)c(F)cc1-n1nccn1)[C@@H](C)COc1ncc(C(F)(F)F)cc1F [Example 52]")
256
>>> result("CCN(C(=O)c1cc(F)cc(F)c1-n1nccn1)[C@@H](C)COc1ccc(OC(F)(F)F)cn1 [Example 126]")
71
